Target: HiBit-BRG1 fusion protein (Homo sapiens, UniProt P51532)
Construct: expressed in transfected cells
Sequence (P51532 whole entry, the tested form may be a part): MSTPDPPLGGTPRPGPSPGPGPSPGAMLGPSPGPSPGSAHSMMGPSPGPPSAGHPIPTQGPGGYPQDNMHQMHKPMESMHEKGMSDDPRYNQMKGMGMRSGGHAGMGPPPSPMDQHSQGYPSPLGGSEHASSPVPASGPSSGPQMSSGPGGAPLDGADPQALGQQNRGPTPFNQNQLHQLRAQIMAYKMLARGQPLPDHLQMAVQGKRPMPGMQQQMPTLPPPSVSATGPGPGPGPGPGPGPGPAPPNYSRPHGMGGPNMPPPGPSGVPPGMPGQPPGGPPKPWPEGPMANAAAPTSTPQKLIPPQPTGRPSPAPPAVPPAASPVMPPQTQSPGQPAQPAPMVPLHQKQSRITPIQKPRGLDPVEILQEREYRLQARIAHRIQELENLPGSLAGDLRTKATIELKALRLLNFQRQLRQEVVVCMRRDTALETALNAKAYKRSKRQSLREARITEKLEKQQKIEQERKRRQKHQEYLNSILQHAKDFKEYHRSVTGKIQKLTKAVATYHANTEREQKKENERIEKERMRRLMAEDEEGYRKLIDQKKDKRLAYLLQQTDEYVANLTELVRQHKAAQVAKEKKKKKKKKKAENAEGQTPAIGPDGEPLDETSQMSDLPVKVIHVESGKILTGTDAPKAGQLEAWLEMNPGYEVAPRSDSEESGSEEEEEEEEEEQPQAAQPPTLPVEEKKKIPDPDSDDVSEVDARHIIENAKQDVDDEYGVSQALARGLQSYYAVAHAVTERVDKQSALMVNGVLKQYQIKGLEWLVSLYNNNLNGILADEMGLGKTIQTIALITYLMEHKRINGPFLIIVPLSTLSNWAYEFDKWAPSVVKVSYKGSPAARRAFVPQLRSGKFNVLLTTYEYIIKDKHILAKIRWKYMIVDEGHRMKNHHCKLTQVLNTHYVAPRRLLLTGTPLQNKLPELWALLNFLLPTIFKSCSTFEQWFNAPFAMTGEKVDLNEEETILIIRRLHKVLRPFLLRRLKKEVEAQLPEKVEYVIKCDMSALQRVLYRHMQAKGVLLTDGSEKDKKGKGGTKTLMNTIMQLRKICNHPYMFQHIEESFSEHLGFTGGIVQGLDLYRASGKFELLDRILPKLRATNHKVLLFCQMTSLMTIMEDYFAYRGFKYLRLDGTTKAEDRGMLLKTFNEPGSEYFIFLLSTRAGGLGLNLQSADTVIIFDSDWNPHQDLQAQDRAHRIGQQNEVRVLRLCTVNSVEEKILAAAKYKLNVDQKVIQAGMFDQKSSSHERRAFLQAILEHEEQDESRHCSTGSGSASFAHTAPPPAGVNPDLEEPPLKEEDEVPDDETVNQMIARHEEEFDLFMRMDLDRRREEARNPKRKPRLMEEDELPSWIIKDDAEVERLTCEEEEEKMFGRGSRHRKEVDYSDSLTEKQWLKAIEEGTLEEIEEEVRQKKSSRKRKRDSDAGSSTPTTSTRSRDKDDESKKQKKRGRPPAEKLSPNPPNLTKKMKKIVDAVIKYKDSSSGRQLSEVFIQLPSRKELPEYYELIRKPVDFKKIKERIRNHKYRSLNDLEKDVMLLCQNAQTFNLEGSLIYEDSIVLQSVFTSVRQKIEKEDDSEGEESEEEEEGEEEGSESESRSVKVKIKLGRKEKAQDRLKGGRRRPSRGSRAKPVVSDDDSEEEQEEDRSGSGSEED
Assay: HiBiT-BRG1 cell-based degradation assay (Nano-Glo HiBiT lytic detection, 24 h)
Details: HeLa cell line expressing HiBit-BRG1 and LgBit, read-out: BRG1 HiBit Degradation Maximum (%)
Reported Dmax by item:

C#Cc1ccc([C@H](C)NC(=O)[C@@H]2C[C@@H](O)CN2C(=O)C(c2cc(N3CC4(CC(c5cc6nnc(-c7ccccc7O)cc6n5C5CCC5)C4)C3)no2)C(C)C)c(Cl)c1 (stereo partly drawn) [Compound 121] = < 50%
Cc1ncsc1-c1ccc([C@H](C)NC(=O)[C@@H]2C[C@@H](O)CN2C(=O)[C@@H](c2cc(N3CC4(CC(c5cc6nnc(-c7ccccc7O)cc6n5C5CC5)C4)C3)no2)C(C)C)cc1 [Compound 78] = < 50%
Cc1ncsc1-c1ccc([C@H](C)NC(=O)[C@@H]2C[C@@H](O)CN2C(=O)[C@H](c2cc(-c3cnc(N4CC[C@@H](c5cc6nnc(-c7ccccc7O)cc6n5C5CC5)C4)nc3)no2)C(C)C)cc1 [Compound 37] = < 50%
Cc1ncsc1-c1ccc([C@H](C)NC(=O)[C@@H]2C[C@@H](O)CN2C(=O)[C@@H](c2cc(OCC(=O)N3CC(c4cc5nnc(-c6ccccc6O)cc5n4C)C3)no2)C(C)C)cc1 [Compound 15] = < 50%
Cc1ncsc1-c1ccc([C@H](C)NC(=O)[C@@H]2C[C@@H](O)CN2C(=O)[C@@H](c2cc(-c3cnc(N4CC[C@@H](c5cc6nnc(-c7cc(F)cc(F)c7O)cc6n5C5CC5)C4)nc3)no2)C(C)C)cc1 [Compound 111] = < 50%

Task: Please give the documented Dmax of Cc1ncsc1-c1ccc([C@H](C)NC(=O)[C@@H]2C[C@@H](O)CN2C(=O)[C@@H](c2cc(N3CCC4(CC[C@H](c5cc6nnc(-c7ccccc7O)cc6n5C5CC5)C4)CC3)no2)C(C)C)cc1 [Compound 96]
Result: > 50%

Task: Please give measured Dmax of the following entry: CC(C)C(C(=O)N1C[C@H](O)C[C@H]1C(=O)NCc1ccc(F)cc1)c1cc(N2CC3(CC(c4cc5nnc(-c6ccccc6O)cc5n4C4CCC4)C3)C2)no1 (stereo partly drawn) [Compound 50]
Result: < 50%

Task: Recall and state the measured Dmax for Cc1ncsc1-c1ccc([C@H](C)NC(=O)[C@@H]2C[C@@H](O)CN2C(=O)[C@@H](c2cc(-c3cnc(N4CCC(c5cc6nnc(-c7ccccc7O)cc6n5C5CCC5)CC4)nc3)no2)C(C)C)cc1 [Compound 46] .
Result: < 50%

Task: Tell us which Dmax value is on record for Cc1ncsc1-c1ccc([C@H](C)NC(=O)[C@@H]2C[C@@H](O)CN2C(=O)[C@@H](c2cc(N3CC[C@@H](c4cc5nnc(-c6ccccc6O)cc5n4C4CCC4)C3)no2)C(C)C)cc1 [Compound 88]
Result: > 75%
